Where do the numbers come from? From ChEMBL document CHEMBL5500324.

system: HT-29; test: Cytotoxicity against human HT-29 cells assessed as inhibition of cell growth; type: functional, cell-based

>  <SMILES REPRESENTATION>
COc1c(C)cc2c(c1O)[C@H]1[C@@H]3[C@@H]4SCC(=O)C(=O)OC[C@@H](c5c6c(c(C)c(OC(C)=O)c54)OCO6)N3[C@@H](O)[C@@H](C2)N1C

>  <IC50>
25 ng/mL

$$$$
>  <SMILES REPRESENTATION>
COc1c(C)cc2c(c1O)[C@@H]1N[C@H](C2)[C@H](O)N2[C@H]1[C@@H]1SC[C@H](N)C(=O)OC[C@H]2c2c(O)c(OC)c(C)c(OC(C)=O)c21

>  <IC50>
10 ng/mL

$$$$
>  <SMILES REPRESENTATION>
COc1cc2c(cc1O)CCN[C@@]21CS[C@@H]2c3c(OC(C)=O)c(C)c4c(c3[C@H](COC1=O)N1[C@@H]2[C@H]2c3c(cc(C)c(OC)c3O)C[C@@H]([C@@H]1O)N2C)OCO4

>  <IC50>
0.5 ng/mL

$$$$
>  <SMILES REPRESENTATION>
COc1c(C)cc2c(c1O)[C@H]1[C@@H]3[C@@H]4SC[C@H](N)C(=O)OC[C@@H](c5c(O)c(OC)c(C)c(OC(C)=O)c54)N3[C@@H](O)[C@@H](C2)N1C

>  <IC50>
2 ng/mL

$$$$
>  <SMILES REPRESENTATION>
COc1cc2c(cc1O)CCN[C@@]21CS[C@@H]2c3c(OC(C)=O)c(C)c4c(c3[C@H](COC1=O)N1[C@@H]2[C@@H]2N[C@@H](Cc3cc(C)c(OC)c(O)c32)[C@@H]1O)OCO4

>  <IC50>
0.5 ng/mL

$$$$
